Consider the following compounds; for each one, report its LC50.
Test: Toxicity against Artemia salina
Format: organism-based
Conditions: in vivo
Your reply should be a number followed by the unit it is expressed in.

Incoming: Look at this compound and give its reported LC50. Oc1c(Br)cc(Br)cc1Oc1ccc(Br)cc1Br
Outgoing: 8.66 mg/L

Incoming: Look at this compound and give its reported LC50. Oc1c(Br)c(Br)c(Br)c(Br)c1Oc1ccccc1Br
Outgoing: 0.96 mg/L

Incoming: Look at this compound and give its reported LC50. Oc1cc(Br)c(Br)c(Br)c1Oc1ccccc1Br
Outgoing: 3.3 mg/L

Incoming: Look at this compound and give its reported LC50. Oc1c(Br)c(Br)c(Br)c(Br)c1Oc1ccc(Br)cc1Br
Outgoing: 0.94 mg/L

Incoming: Look at this compound and give its reported LC50. COc1c(Br)cc(Br)c(Br)c1Oc1ccccc1Br
Outgoing: 26.2 mg/L
